Where do the numbers come from? From patent US4370327A.

Test system: E. coli ATCC 11775
method-description: in vivo test against experimental intraperitoneal infection in mice
Parameters: species or system E. coli in female mice of the NMRI strain
condition-notes: Escherichia coli, ATCC11775, sc, 168 h; subcutaneous, one treatment 1 hour after i.p. infection, observation 7 days; read-out: ED50 (dose at which 50% of the animals survived)
Description: A number of the compounds according to the invention were tested in vivo against experimental infections in mice. E. coli ATCC 11775 was used as the pathogenic bacteria. An intraperitoneal infection was produced with 0.2 ml of a bacterial suspension (with 5% mucin), which corresponds to about 1.4×10^6 E. coli bacteria per mouse. Female mice of the NMRI strain were divided up into groups of 10 animals. […]
assay-metric: ED50

Ask: # query: ED50 | item Cn1nnnc1SCC1=C(C(=O)O)N2C(=O)[C@@H](NC(=O)C(NC(=O)Nc3cnc(C4CC4)nc3O)c3csc(N)n3)[C@H]2SC1 (stereo partly drawn) | system: E. coli ATCC 11775
Reply: 0.5 mg/kg

Ask: Item: CO/N=C(\C(=O)N[C@@H]1C(=O)N2C(C(=O)O)=C(COC(N)=O)CS[C@H]12)c1ccco1 [Cefuroxime, reference compound]
Reply: > 100 mg/kg

Ask: Item: Cn1nnnc1SCC1=C(C(=O)O)N2C(=O)[C@@H](NC(=O)C(NC(=O)Nc3cnc(NCc4ccc(O)cc4)nc3O)c3csc(N)n3)[C@H]2SC1 (stereo partly drawn)
Reply: < 0.2 mg/kg
